targetDesc: T1, Full-length human TIGIT on CHO-K1 cells (CHO-K1 human TIGIT) (human, UniProt Q495A1 22-244)
T1 construct: NCBI XP_024309156.1; the entry includes the signal peptide (limits not recoverable); The strain (high, medium, low) is named under assay; also called high expression strain 1D2; medium expression strain 2D10
T1 sequence: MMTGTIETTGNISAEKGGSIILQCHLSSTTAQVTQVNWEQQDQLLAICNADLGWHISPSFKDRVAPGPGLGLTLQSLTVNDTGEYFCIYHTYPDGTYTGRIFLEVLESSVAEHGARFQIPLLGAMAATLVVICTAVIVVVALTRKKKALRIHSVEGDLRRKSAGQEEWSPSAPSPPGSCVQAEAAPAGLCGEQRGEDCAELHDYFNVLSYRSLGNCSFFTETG
procedureText: FACS; CHO-K1 human TIGIT medium expression strain
Listing: EC50 of selected binders
# value in nM; strip the unit string

Look over these answered cases.
TIGIT-005-H2L1d (antibody, V domains shown, Humanized anti-TIGIT antibody with NG-site mutation in VL) VH: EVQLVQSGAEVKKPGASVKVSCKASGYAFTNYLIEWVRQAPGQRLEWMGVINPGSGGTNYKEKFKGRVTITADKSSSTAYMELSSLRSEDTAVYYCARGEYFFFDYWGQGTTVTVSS VL: DIVMTQSPDSLAVSLGERATINCKASQHVSNAVAWYQHKPGQSPKLLIYSASYRYTGVPDRFSGSGSGTDFTLTISSLQAEDVAVYYCQQHYNTPHTFGGGTKVEIK :: 0.285
TIGIT-006-H5L3 (antibody, V domains shown, Humanized anti-TIGIT antibody) VH: EVQLQESGPGLVKPSETLSLTCAVSGYSMTSDYWNWIRQPPGKKLEYIGYISYSGRTYYNPSLKSRVTISRDTSKNQFSLKLSSVTAADTAVYYCARGDYSNYGGAMYDWGQGTTVTVSS VL: DIVMTQSPDSLAVSLGERATINCRASQGVSTTIAWYQQKPGQSPKLLIYSASYRYTGVPRFSGSGSGTDFTLTISSLQAEDVAVYYCQQYYSSPFTFGGGTKVEIK :: 0.396
TIGIT-002-H4L3 (antibody, V domains shown, Humanized anti-TIGIT antibody) VH: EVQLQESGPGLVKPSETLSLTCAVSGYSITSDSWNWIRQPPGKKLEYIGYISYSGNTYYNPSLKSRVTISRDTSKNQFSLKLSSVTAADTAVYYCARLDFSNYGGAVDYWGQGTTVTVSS VL: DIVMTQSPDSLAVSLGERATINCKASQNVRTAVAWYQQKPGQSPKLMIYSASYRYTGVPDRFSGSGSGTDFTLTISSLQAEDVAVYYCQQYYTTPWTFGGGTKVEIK :: 0.228

# EC50 (binder: TIGIT-070-H1L1 (antibody, V domains shown, Humanized anti-TIGIT antibody) VH: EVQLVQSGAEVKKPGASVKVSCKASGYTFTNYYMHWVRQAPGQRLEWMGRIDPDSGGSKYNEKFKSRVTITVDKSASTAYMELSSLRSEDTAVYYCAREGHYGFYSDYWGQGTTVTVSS VL: DIQMTQSPSSLSASVGDRVTITCRVSENIYSYLAWYQQKPGKSPKLLIYNAKTLAEGVPSRFSGSGSGTDFTLTISSLQPEDFATYYCQHHYGNPLTFGPGTKVDIK ) is 0.45
